System: VDR homodimer (NR concentration 270 nM)
Test: PBM binding z-score (relative to random genomic background probes); higher = stronger binding; sequences stand for … in GC…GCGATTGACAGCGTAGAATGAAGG
# binarize PBM binding z-score: threshold 0.03 inclusive, high side Satisfied, low side Not satisfied

polymerSequence: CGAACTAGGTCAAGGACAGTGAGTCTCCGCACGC
assignedLabel: Satisfied

polymerSequence: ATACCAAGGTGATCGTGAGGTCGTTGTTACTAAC
assignedLabel: Satisfied

polymerSequence: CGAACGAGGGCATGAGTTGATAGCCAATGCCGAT
assignedLabel: Satisfied

polymerSequence: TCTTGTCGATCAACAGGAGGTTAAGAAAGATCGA
assignedLabel: Not satisfied

polymerSequence: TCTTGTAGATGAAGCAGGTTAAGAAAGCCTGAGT
assignedLabel: Not satisfied

polymerSequence: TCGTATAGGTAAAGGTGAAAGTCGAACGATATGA
assignedLabel: Satisfied

polymerSequence: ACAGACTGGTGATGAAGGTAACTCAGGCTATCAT
assignedLabel: Not satisfied

polymerSequence: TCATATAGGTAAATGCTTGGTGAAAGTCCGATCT
assignedLabel: Satisfied

polymerSequence: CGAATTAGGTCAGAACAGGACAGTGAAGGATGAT
assignedLabel: Satisfied

polymerSequence: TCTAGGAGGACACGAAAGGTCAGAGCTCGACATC
assignedLabel: Satisfied

polymerSequence: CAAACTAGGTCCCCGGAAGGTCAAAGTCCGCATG
assignedLabel: Satisfied

polymerSequence: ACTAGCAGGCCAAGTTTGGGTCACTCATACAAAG
assignedLabel: Satisfied

====

Tested on: RARg homodimer (NR concentration 270 nM)
Experiment: PBM binding z-score (relative to random genomic background probes); higher = stronger binding; sequences stand for … in GC…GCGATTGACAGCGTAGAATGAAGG

polymerSequence: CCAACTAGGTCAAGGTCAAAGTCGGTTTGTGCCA
PBM binding z-score: 6.54

polymerSequence: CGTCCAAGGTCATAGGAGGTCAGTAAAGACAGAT
PBM binding z-score: 7.38

polymerSequence: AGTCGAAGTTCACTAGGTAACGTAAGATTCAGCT
PBM binding z-score: 2.93

polymerSequence: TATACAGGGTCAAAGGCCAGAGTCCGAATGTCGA
PBM binding z-score: 4.75

polymerSequence: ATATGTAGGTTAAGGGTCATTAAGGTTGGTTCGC
PBM binding z-score: 3.54

polymerSequence: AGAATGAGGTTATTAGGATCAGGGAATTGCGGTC
PBM binding z-score: 0.986

====

System: PPARg DBDmut IVT, anti-PPARg (DBD mutation: PPARg1 K132A/R137A, NR concentration 270 nM)
Test: PBM binding z-score (relative to random genomic background probes); higher = stronger binding; sequences stand for … in GC…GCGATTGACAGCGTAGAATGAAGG
experimentalEndpoint: PBM binding z-score

polymerSequence: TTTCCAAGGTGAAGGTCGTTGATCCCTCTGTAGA
result: 0.793
--
polymerSequence: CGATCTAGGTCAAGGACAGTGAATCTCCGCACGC
result: 2.13
--
polymerSequence: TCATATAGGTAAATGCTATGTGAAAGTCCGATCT
result: 1.39
--
polymerSequence: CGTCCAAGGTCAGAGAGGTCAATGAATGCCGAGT
result: -0.854
--
polymerSequence: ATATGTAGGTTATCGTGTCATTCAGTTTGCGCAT
result: 2.15
--
polymerSequence: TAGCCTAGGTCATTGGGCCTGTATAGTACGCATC
result: -0.181
--
polymerSequence: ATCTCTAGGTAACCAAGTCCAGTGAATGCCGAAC
result: 1.58
--
polymerSequence: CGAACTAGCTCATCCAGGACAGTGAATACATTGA
result: 0.607
--
polymerSequence: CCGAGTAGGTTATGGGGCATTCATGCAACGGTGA
result: 0.00847
--
polymerSequence: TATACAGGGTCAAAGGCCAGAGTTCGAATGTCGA
result: 2
--
polymerSequence: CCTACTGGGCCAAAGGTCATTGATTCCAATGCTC
result: 0.177
--
polymerSequence: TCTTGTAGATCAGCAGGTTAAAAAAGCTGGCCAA
result: 0.0495

The reported measurements were obtained from the supplement of paper PMC6555819.
